Data provenance: the RNAGym collection of RNA variant scans (doi:10.1126/science.aae0568)

B1: tRNA (parent)
chain: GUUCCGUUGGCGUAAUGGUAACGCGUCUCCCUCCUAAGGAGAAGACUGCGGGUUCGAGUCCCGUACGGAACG

Variants of: B1
measurement-description: yeast fitness relative to wild type (ratio to wild type); higher = fitter; tRNA-Arg(CCU), competitive growth, 37 C, YPD
This sample holds only a part of the variants without activity.
Decide using yeast fitness: a value greater than or equal to 0.6 is 1.0, a smaller one is 0.0.

variant-code | assigned-label
G12A C31U U53A U54G G58C C62U | 1.0
C5A C11G C24A C55U G63C | 0.0
U54A C55A C66G | 1.0
C4U A21U A42G G50C C66U A70U | 0.0
C49U C61U A70G | 1.0
G9C G51C G52A | 0.0
A14C A40C G68A | 0.0
A20G U54G C66G | 0.0
G6C U8A A45U U53C G67A A69C | 1.0
U16C U47C | 1.0
C5A U7A G39A C60U C62A | 0.0
U7C G25C A42G | 0.0
A37G U47A C60A | 0.0
C4G C34U | 1.0
A15G G39C C46U | 1.0
A21C C46G A65U | 1.0
U16C U26C G58A | 1.0
G9C C31A | 1.0
U7C U35C A37C | 1.0
G10C G39C G51A | 0.0
C29G A37U U59C C66G | 1.0
C11A U32A A70U | 0.0
A15U C29A A43C G50C | 0.0
G18C A37C C49G A70G | 0.0
U7A U47A C55G G68A | 0.0
C5G A43C G48A U59G | 0.0
C29U C30A A37U A57C | 0.0
C5U A45U C62G A65G | 1.0
C29U C31G G38A G51A G58C | 0.0
A20G G25C C33U C49A U53A G67A | 0.0
G50A C55G | 0.0
C24G U28C C31G C66U | 0.0
U8C A20G C34G C66U | 1.0
G10C C29G A40G | 0.0
C22G C30G G50A A57U A70G | 0.0
G12C A14G G25A G41C G67A | 0.0
C5G G10A A42G C55U A70C | 0.0
C27A G41C | 1.0
C5A A15G G18C C29A U54A | 0.0
C22A G48C G51A C55A C66A | 0.0
U8A G17A C24U | 1.0
C30G A36G A57U A65U C66U | 0.0
A14G C31A G44C C60G | 0.0
A20G C27A C31A C61U | 0.0
G10A C30U U47A G67C | 0.0
U3A G10C A36U A40C A57C | 0.0
C29U A65C C66G | 0.0
G44C G63C | 1.0
U7A C29G A36C | 0.0
U2C C11U G68A | 0.0
G17C C24G U28A C30U C49U A65U A69C | 0.0
C24U C27G U47C G56C U64C G68C | 0.0
G50C U54C | 1.0
G38C G44C C46A | 1.0
C27U C33U U35C | 0.0
C34A C66U | 1.0
C4U U13A A14U C29U A37G A57C | 0.0
C4G C5A C27A C34A A42U | 0.0
U28C C49U | 1.0
G38A A40U G50C C60G G67A A70C | 0.0
C4U G41C | 1.0
C34A A40U | 1.0
C5U C22G A40G | 1.0
U2C C4A G18C G63A | 1.0
A43U C62G | 1.0
U2A A21G A36G G44C U59G | 0.0
G12C C33G G44C U54A | 0.0
C11U C22U G38A U54C | 0.0
A20G A40C A42U A43C G48A C66U | 0.0
G6A U47A C61U | 0.0
U3C G12A G44C | 0.0
U13C A36U U64C | 0.0
G10A G52A | 0.0
C30U U47A G67C A70U | 0.0
G12C A65C | 1.0
U7C C24G C31A | 0.0
C4A C30G A40U A45U G48A | 0.0
C4G U64C G68C | 1.0
A40G A45C | 1.0
U16C A36U A65U | 0.0
A37U C49U | 1.0
A43C A70C | 1.0
C11U C24U C34G A70G | 0.0
U13G A15C C30G C34A U35A U53C A57U C60G | 0.0
A21C A45U G52C | 0.0
